Experiment notes: in vitro
Test conditions: human, HepG2-A16-CD81EGFP cells, uninfected
Measured attribute: viability at 48 h, 3 µM
The number alone won't do; follow it with the unit.

Study these solved cases before continuing.
{"Compound": "CC(C)N1C(=S)N(Cc2ccco2)C(=O)C1CC(=O)Nc1ccccc1 (centres unmarked)", "viability at 48 h, 3 µM": "109%"}
{"Compound": "Cc1ccc(NCC(=O)Nc2cccc(F)c2)cc1S(=O)(=O)N1CCCCCC1", "viability at 48 h, 3 µM": "83%"}
{"Compound": "O=C1C2=C(Nc3ccccc3SC2c2ccco2)c2ccccc21 (centres unmarked)", "viability at 48 h, 3 µM": "99%"}
{"Compound": "CCOC(=O)c1c(C)n(-c2ccc(F)cc2)c2ccc(O)cc12", "viability at 48 h, 3 µM": "93%"}

// moving on: another record for viability at 48 h, 3 µM
query: May I ask what viability at 48 h, 3 µM has been recorded for O=C(Nc1ccc(N2CCCCC2)c(Cl)c1)c1nnc[nH]1 ?
result: 99%

====

Experiment notes: in vitro
Test conditions: human, HepG2-A16-CD81EGFP cells, uninfected
// viability at 48 h, 1 µM lookup, one value per entry
Value expressed in %; do not type the unit.

Study these solved cases before continuing.
{"Molecule": "CCCc1cc(=O)oc2cc(C)cc(OC(C)C(=O)NCC(O)c3ccccc3)c12 (centres unmarked)", "viability at 48 h, 1 µM [%]": 84}
{"Molecule": "O=C(NCCCNc1ccnc2cc(Cl)ccc12)c1ccccc1F", "viability at 48 h, 1 µM [%]": 85}
{"Molecule": "Fc1ccc(-c2csc3ncnc(Cl)c23)cc1", "viability at 48 h, 1 µM [%]": 111}
{"Molecule": "O=C1c2ccccc2C2=Nc3ccccc3SC(c3ccc(Cl)cc3)C12 (centres unmarked)", "viability at 48 h, 1 µM [%]": 90}
{"Molecule": "NS(=O)(=O)c1cccc(NC(=O)CSc2nn(-c3ccccc3)c(=S)s2)c1", "viability at 48 h, 1 µM [%]": 105}

query: May I ask what viability at 48 h, 1 µM has been recorded for CC1(C)Cc2c(c(N3CCOCC3)nc3snc(Br)c23)CO1 ?
result: 87

query: May I ask what viability at 48 h, 1 µM has been recorded for CCOc1ccc(NC(=O)CN2C(=O)NC(C)(c3ccc(OC(F)F)cc3)C2=O)cc1 (centres unmarked) ?
result: 109

query: May I ask what viability at 48 h, 1 µM has been recorded for CCCc1ccc(C(=O)NC(=O)c2ccccc2O)cc1 ?
result: 101

query: May I ask what viability at 48 h, 1 µM has been recorded for Cc1ccc(C(=O)c2oc3ccccc3c2NC(=O)c2cc(-c3cc(C)ccc3O)[nH]n2)cc1 ?
result: 103

query: May I ask what viability at 48 h, 1 µM has been recorded for N=c1c2c(n(Cc3ccccc3)c3c1CCC3)CCC2 ?
result: 98

====

Test system: Plasmodium falciparum Dd2 asexual blood stage parasites
Experiment notes: microbe, parasite or virus in culture
Parameters: species or system Plasmodium falciparum Dd2 in human erythrocytes; single determination (one 11-point concentration-response curve)
Test conditions: Plasmodium falciparum, DD2, Erythrocyte, 72 h; read-out: AC50
// AC50 lookup, one value per entry
Value expressed in nM; do not type the unit.

{"Structure notation": "CCOC(=O)c1c(CNc2ccncc2)n(C)c2cc(Br)c(O)cc12", "AC50, nM": 2660}
{"Structure notation": "O=C(Nc1cccnc1)c1cc(-c2cccnc2)nc2ccc(Br)cc12", "AC50, nM": 2660}

// moving on: another record for AC50
query: Lab request: please report AC50 under test system Plasmodium falciparum Dd2 asexual blood stage parasites for Cc1sc2[nH]c(-c3ccccn3)nc(=O)c2c1-c1ccccc1
result: 13300

====

Experiment notes: in vitro
Test conditions: human, hepg2 cells
Measured attribute: CC50 at 48 h (µM)
Value expressed in µM; do not type the unit.

{"Molecule": "Brc1ccc2[nH]c3c(N4CCc5ccccc5C4)ncnc3c2c1 [MLS000556376-01]", "CC50 at 48 h / µM": 43.2}
{"Molecule": "CCc1nnc([C@@H]2CC(F)(F)CN2Cc2cccn2C)o1 [NCGC00468656-01]", "CC50 at 48 h / µM": 13.7}

// moving on: another record for CC50 at 48 h
query: May I ask what CC50 at 48 h has been recorded for COC(=O)C1=C(C)NC(C)=C(C(=O)OCCCN2CCC(c3ccccc3)(c3ccccc3)CC2)C1c1cccc([N+](=O)[O-])c1.Cl (stereo not shown) [NCGC00163135-01] ?
result: 43.2

====

Tested on: Plasmodium falciparum Dd2 asexual blood stage parasites
Experiment notes: microbe, parasite or virus in culture
Set-up: species or system Plasmodium falciparum Dd2 in human erythrocytes; single determination (one 11-point concentration-response curve)
Test conditions: Plasmodium falciparum, DD2, Erythrocyte, 72 h; read-out: AC50
Sorting guide: entries reporting AC50 beneath 3 µM go in the satisfied pile, the rest go in the not satisfied pile.

query: Lab note: AC50 threshold 3 µM. Does this compound come in strictly under it? CCCC(O)c1nc2ccccc2n1CCCCOc1ccc(OC)cc1 (stereo not shown)
result: not satisfied

query: Lab note: AC50 threshold 3 µM. Does this compound come in strictly under it? CC(C)c1ccccc1Oc1c(C(F)(F)F)oc2c(CN3CCN(C)CC3)c(O)ccc2c1=O
result: satisfied

query: Lab note: AC50 threshold 3 µM. Does this compound come in strictly under it? c1ccc(-c2nc(NCc3ccco3)c3ccccc3n2)nc1
result: not satisfied

query: Lab note: AC50 threshold 3 µM. Does this compound come in strictly under it? Cc1[nH]c2ccc(OC(F)(F)F)cc2c1CCNCc1cccc([N+](=O)[O-])c1
result: not satisfied

query: Lab note: AC50 threshold 3 µM. Does this compound come in strictly under it? COc1ccc(CNCc2ccc(C)s2)cc1OCC(O)CN1CCCCC1 (stereo not shown)
result: not satisfied

query: Lab note: AC50 threshold 3 µM. Does this compound come in strictly under it? COc1cccc(C2=C(C(C)=O)Sc3nnc(C4CCCCC4)n3N2C(C)=O)c1
result: not satisfied

query: Lab note: AC50 threshold 3 µM. Does this compound come in strictly under it? Cc1ccc([S+](=O)([O-])N[C@@H]2CN(C)C[C@H]2CN(C)C)cc1F
result: not satisfied

query: Lab note: AC50 threshold 3 µM. Does this compound come in strictly under it? CC(=O)Nc1cccc(-c2cc(C(=O)NCc3c(C)cc(C)[nH]c3=O)c3c(c2)N(C(C)C)CCO3)c1
result: not satisfied

====

Test system: P. berghei-ANKA-GFP-LucCON liver stage parasites in HepG2-A16-CD81EGFP cells
Experiment notes: P. berghei liver stage Pb-Luc assay, Method 1 (UCSD, 1536-well)
Assay type: cell-based, Plasmodium berghei
Test conditions: Method 1; Decrease = decreasing P. berghei viability with dose, Increase = increasing signal, Inactive = no dose response
Measured attribute: Max Resp (signal direction of the dose response)

Study these solved cases before continuing.
{"Compound": "COc1cccc(NC(=O)c2cccc3c(=O)c4c([nH]c23)CCCC4)c1 [NCGC00119838-01]", "Tested system": "P. berghei-ANKA-GFP-LucCON liver stage parasites in HepG2-A16-CD81EGFP cells", "Observed measurement": "Inactive"}
{"Compound": "CCOc1ccc(NC(=O)c2cc3ccccc3cc2O)cc1 [MLS000736677-01]", "Tested system": "P. berghei-ANKA-GFP-LucCON liver stage parasites in HepG2-A16-CD81EGFP cells", "Observed measurement": "Decrease"}
{"Compound": "O=C(Nc1ccc(Br)cc1)c1ccc(F)c([S+](=O)([O-])NC2CCCCCC2)c1 [NCGC00139407-01]", "Tested system": "P. berghei-ANKA-GFP-LucCON liver stage parasites in HepG2-A16-CD81EGFP cells", "Observed measurement": "Decrease"}
{"Compound": "O=C1Nc2ccccc2C1=NN=C(S)N1CCOCC1 [MLS000778251-01]", "Tested system": "P. berghei-ANKA-GFP-LucCON liver stage parasites in HepG2-A16-CD81EGFP cells", "Observed measurement": "Decrease"}
{"Compound": "CC(=O)Nc1ccc(CN2CCc3nc(C(C)C)nc(-c4ccc(Cl)cc4)c3CC2)cc1 [NCGC00374598-01]", "Tested system": "P. berghei-ANKA-GFP-LucCON liver stage parasites in HepG2-A16-CD81EGFP cells", "Observed measurement": "Decrease"}

query: May I ask what Max Resp (signal direction of the dose response) has been recorded for c1ccc(CCNc2nc(-c3ccccn3)nc3ccccc23)cc1 [MLS000769840-01] ?
result: Inactive

query: May I ask what Max Resp (signal direction of the dose response) has been recorded for CN1C2CCC1/C(=C/c1ccccn1)C(=O)/C2=C\c1ccccn1 [MLS000702810-01] ?
result: Decrease

query: May I ask what Max Resp (signal direction of the dose response) has been recorded for COc1cc(/C=C(\C#N)c2nc3ccccc3[nH]2)ccc1OCc1ccc(F)cc1 [NCGC00102606-01] ?
result: Decrease
